Tested on: cysteine peptide Ac-RFAACAA-COOH
assay.name: efficacy of cysteine peptide change (negative = depletion) (% activity); higher = less depletion
experimental.parameters: incubation time: 24 h
Structures can show the parent of a compound that is named as a salt.
The label depends only on efficacy of cysteine peptide change: met if it is at least -70, not met if it is smaller.

Reference set, count: 8
Oc1ccc(-c2ccccc2)cc1Cl [2-Chloro-4-phenylphenol] : met
CCCCCCCCn1sc(Cl)c(Cl)c1=O [4,5-Dichloro-2-octyl-3(2H)-isothiazolone] : not met
C/C=C/C=C/C=O [2,4-Hexadienal] : not met
C[C@@H]1O[C@@H](O[C@@H]2C=C3CC[C@@H]4[C@H](CC[C@]5(C)[C@@H](c6ccc(=O)oc6)CC[C@]45O)[C@@]3(C)CC2)[C@H](O)[C@H](O)[C@H]1O [Proscillaridin] : met
CCCCCCCC(=O)Oc1c(Br)cc(C#N)cc1Br [Bromoxynil octanoate] : met
COc1cc(C(C)C)c2c(c1)S(=O)(=O)N(COc1cc(=O)n3cccc(OCCN4CCCCC4)c3n1)C2=O : met
O=C(CCl)c1ccccc1 [2-Chloroacetophenone] : not met
Cc1ccc(O)c2ncccc12 [Tiliquinol] : met

Quick check, efficacy of cysteine peptide change >= -70? NNCc1ccccc1 [BENZYLHYDRAZINE HYDROCHLORIDE]
met
